The binders listed here are annotated with their peptide exchange yield.
- ASSAY_SYSTEM: T1, HLA-A*02:01 (peptide-receptive MHC class I monomer after UV cleavage of the UV-sensitive ligand) (human)
- T1 construct: MHC monomers loaded by UV-ligand exchange and captured on streptavidin plates
- PROTOCOL_TEXT: UV ligand-exchange ELISA; exchange yield grade (+ >=10%, ++ >=20%, +++ >=50%, ++++ >=75%)

Illustrative cases are given below, each with its answer.
// query What peptide exchange yield value was documented for this binder, TLITLPLLFL [TLITLPLLFL (SEQ ID NO: 6)] ?
// result 50 to 75%

// query Field entry: FIIEEQSFL [FIIEEQSFL (SEQ ID NO: 44)]
// result 50 to 75%

Others:
// query Endpoint output: peptide exchange yield of LMGPVVHEV [LMGPVVHEV (SEQ ID NO: 262)] . Value?
// result ≥ 75%

// query What would you report for NLINNIFEL [NLINNIFEL (SEQ ID NO: 138)] ?
// result ≥ 75%

// query Next binder: NLQRTVVTV [NLQRTVVTV (SEQ ID NO: 234)]
// result 20 to 50%

// query Entry to check: KLPVPLESV [KLPVPLESV (SEQ ID NO: 246)]
// result 50 to 75%

// query Item: IVLERNPEL [IVLERNPEL (SEQ ID NO: 300)]
// result 50 to 75%
